# target_of_assay: α4β2 nAChR (Rattus norvegicus, UniProt P09483+P12390)
# Construct: expressed in transfected cells; host or cells: Xenopus laevis oocytes injected with cRNA
# Sequence (P09483 31-630): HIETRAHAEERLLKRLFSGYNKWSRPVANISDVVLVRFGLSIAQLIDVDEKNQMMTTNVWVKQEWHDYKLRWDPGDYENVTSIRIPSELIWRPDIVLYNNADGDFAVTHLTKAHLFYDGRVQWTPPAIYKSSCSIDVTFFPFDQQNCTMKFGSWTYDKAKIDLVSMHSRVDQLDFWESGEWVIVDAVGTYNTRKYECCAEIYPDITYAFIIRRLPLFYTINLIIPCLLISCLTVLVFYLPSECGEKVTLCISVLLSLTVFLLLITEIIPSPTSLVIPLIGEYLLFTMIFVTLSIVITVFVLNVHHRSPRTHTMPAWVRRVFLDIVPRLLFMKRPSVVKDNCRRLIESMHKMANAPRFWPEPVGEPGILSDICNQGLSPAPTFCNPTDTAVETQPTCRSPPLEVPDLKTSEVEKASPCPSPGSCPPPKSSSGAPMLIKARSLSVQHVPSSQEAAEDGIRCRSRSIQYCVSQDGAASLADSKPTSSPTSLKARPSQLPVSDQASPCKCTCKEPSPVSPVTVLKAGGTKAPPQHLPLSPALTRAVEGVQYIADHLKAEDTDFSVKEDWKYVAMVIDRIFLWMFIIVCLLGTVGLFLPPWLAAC
# Sequence (P12390 25-500): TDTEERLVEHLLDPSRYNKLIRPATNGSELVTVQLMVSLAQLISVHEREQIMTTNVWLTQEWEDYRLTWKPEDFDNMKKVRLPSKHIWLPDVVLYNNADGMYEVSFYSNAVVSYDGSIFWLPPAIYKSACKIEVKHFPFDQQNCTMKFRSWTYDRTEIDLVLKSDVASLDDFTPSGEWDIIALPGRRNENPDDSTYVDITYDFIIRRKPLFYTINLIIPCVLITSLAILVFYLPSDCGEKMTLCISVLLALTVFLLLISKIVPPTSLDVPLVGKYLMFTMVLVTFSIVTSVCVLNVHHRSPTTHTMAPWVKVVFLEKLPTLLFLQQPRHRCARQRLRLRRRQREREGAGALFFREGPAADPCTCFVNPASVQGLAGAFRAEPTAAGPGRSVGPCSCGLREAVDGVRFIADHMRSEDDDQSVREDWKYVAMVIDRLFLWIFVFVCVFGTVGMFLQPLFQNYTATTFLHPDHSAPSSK
# assay_summary: cell-based
# Assay type: cell-based
# settings: IC50 (95% CI), Late, α4β2, VH −80 mV, late current (1 min), ACh 10 μM
Would you mind telling me the reported pIC50 of each entry?
Expect pIC50 as a plain number equal to -log10 of the molar concentration.

Could you share which pIC50 value was measured for CCCC(=O)N[C@@H](Cc1ccc(O)cc1)C(=O)NCCCCCCCCCCCCN ?
6.55

Could you share which pIC50 value was measured for CCCC(=O)N[C@@H](Cc1ccc(O)cc1)C(=O)NCCCNCCCCNCCCN ?
6.51

* * *

# target_of_assay: α4β2 nAChR (Rattus norvegicus, UniProt P09483+P12390)
# Construct: expressed in transfected cells; host or cells: Xenopus laevis oocytes injected with cRNA
# assay_summary: cell-based
# Format: cell-based
# settings: IC50 (95% CI), Peak, α4β2, VH −60 mV, peak current, ACh 10 μM
measured_metric: pIC50
Expect pIC50 as a plain number equal to -log10 of the molar concentration.

Could you share which pIC50 value was measured for CCCC(=O)N[C@@H](Cc1ccc(O)cc1)C(=O)NCCCCCCCCCCCCN ?
5.41

Could you share which pIC50 value was measured for CCCC(=O)N[C@@H](Cc1ccc(O)cc1)C(=O)NCCCNCCCCNCCCN ?
5.72
